Assay: Cytotoxicity against human PBL assessed as inhibition of cell growth
Format: cell-based
Conditions: peripheral blood lymphocytes (PBL)
# Lookup of reported GI50 keyed by entry

ENTRY_SMILES: CCOc1ccc2c(C(=O)c3cc(OC)c(OC)c(OC)c3)c(N)oc2c1
UNIT_TAG: µM
QUALIFIER_SYMBOL: =
GI50: 8.7

ENTRY_SMILES: COc1cc(C(=O)c2c(N)oc3cc(C)ccc23)cc(OC)c1OC
UNIT_TAG: µM
QUALIFIER_SYMBOL: >
GI50: 10

Data origin, for the record: ChEMBL document CHEMBL4765328
